Listed molecules paired with reported growth inhibition
assay: NCI Yeast Anticancer Drug Screen. Data for the cln2 rad14 strain (AID 165);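 further: 0% = growth equal to vehicle treated cultures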; conditions: S. cerevisiae cln2 rad14 strain, at 50.0 µM, hits give high values
The panel holds about 79,000 compounds, 15% with a hit somewhere; the sample as a whole holds those more often.
API: value field is a number in %; no unit string.

Please review the following examples before continuing.
>>> df
                                   molecule  measured_quantity  measured_number
0  CCCCCCCCCCOC(=O)C(C)O (configuration not stated)  growth inhibition             5.55
1             Cc1ccc(N2CCN(CCC(=O)O)CC2)cc1  growth inhibition            -3.85
2               CCN(CC)CCCNc1ncnc2onc(C)c12  growth inhibition             6.15

stdin: Could you tell me which growth inhibition is on file for CCCCCCCC/C=C\CCCCCCCC(=O)N(CCOC(=O)CCC(=O)OCCN(C(=O)CCCCCCC/C=C\CCCCCCCC)C1CCCCC1)C1CCCCC1 ?
stdout: -3.2

stdin: Could you tell me which growth inhibition is on file for N#Cc1nc(Cc2ccccc2)oc1N ?
stdout: 18.4

stdin: Could you tell me which growth inhibition is on file for CCOC(=O)C(Cl)Cc1ccccc1 (configuration not stated) ?
stdout: 5.45

stdin: Could you tell me which growth inhibition is on file for OCC(O)C1OC2CC1Nc1ccccc1N2 (configuration not stated) ?
stdout: 17.3

stdin: Could you tell me which growth inhibition is on file for CCOC(=O)CC(c1ccc2c(c1)OCO2)c1cc(OC)c(OC)c(OC)c1 (configuration not stated) ?
stdout: 0.45
